- Assayed System: human TREM2 extracellular domain (ECD) (Homo sapiens, UniProt Q9NZC2)
- Sequence (Q9NZC2 19-174): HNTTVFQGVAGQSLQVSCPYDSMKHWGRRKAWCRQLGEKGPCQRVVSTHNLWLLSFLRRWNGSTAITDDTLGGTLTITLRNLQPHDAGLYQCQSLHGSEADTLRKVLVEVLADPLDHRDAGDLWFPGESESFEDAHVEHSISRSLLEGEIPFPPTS
Readout: binding result

R18-13-35 (antibody, V domains shown) VH: AVQLVESGGGLVQPRESLKISCAASGFTFSNAAMYWVRQAPGKGLEWVARIRTKANNYATNYADSLKGRFIISRDDSKSVVYLQMGNLKPEDTAMYYCTAGDTMGPHWFVYWGQGTLVTVSS VL: DIVMTQSPSSLAVSAGETVTIDCKSSQSLLYSGNQKTYLAWYQQKPGQSPKLLIYWASTRQSGVPDRFIGSGSGTDFTLTISSVQAEDLAIYYCQQYYDTPLTFGSGTKLEIK | binds
R18-13-32 (antibody, V domains shown) VH: AVQLVESGGGLVQPKESLKISCAASGFTFSYAAMYWVRQAPGKGLEWVARIRSKPNNYATYYADSVKGRFTISRDDSKSMVYLQMDNLKTEDTAMYYCTAPYYYDGSPFEYWGQGVMVTVSS VL: DIVMTQSPSSLAVSAGETVTIDCKSSQSLLYSGNQKTYLAWYQQKPGQSPKLLIYWASTRQSGVPDRFIGSGSGTDFTLTISSVQAEDLAIYYCQQYYDTPLTFGSGTKLEIK | binds
R18-13-30 (antibody, V domains shown) VH: AVQLVESGGGLVQPKESLKVSCAASGFTFSHAAMYWVRQAPGKGLEWVARITTEPNNYATNYADSVKGRFTISRDDSKSMVFLQMDNMKTEDTAMYYCTAEVRVYPYYFDYWGQGVMVTVSS VL: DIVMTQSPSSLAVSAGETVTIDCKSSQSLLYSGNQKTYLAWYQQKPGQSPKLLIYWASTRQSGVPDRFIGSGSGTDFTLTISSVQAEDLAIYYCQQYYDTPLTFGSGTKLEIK | binds
R18-12-19 (antibody, V domains shown) VH: AVQLVESGGGLVQPKESLKISCAASGFTFSNAAMYWVRQAPGKGLEWVARIRTKPNNYATYYTDSVKGRFTISRDDSKSMVYLQMDNLKTEDTAMYYCTAEGSSRNWFAYWGQGTLVTVSS VL: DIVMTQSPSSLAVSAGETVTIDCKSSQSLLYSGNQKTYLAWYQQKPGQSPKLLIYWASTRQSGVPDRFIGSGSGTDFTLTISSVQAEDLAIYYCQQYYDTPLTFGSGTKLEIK | binds

Respond only with binding result recorded for R18-11-10 (antibody, V domains shown) VH: AVQLVESGGGVVRPKESLRISCAASGFTFSNVAMYWVRQAPGKGLEWVARIRTKPNNYATNYADSVKGRFTISRDDSNSMVNLQMENLKTEDTAMYYCTAVGGHNWFAYWGQGTLVTVSS VL: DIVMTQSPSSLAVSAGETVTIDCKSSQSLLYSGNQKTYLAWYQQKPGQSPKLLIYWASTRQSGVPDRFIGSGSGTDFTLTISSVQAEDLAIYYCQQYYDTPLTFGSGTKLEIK
binds
